Test: PAMPA permeability
Conditions: PAMPA Permeability, donor pH 6.2, acceptor pH 7.4
parameterMeasured: Papp (×10⁻⁶ cm/s)
Write the value in ×10⁻⁶ cm/s as a bare number.

Query: Dear colleague, please send me the reported Papp for COC(=O)c1cccc(-n2sc3ccccc3c2=O)c1 when you can.
Reply: 1230

----------
Assay: Plasma stability, mouse
Conditions: 1× PBS, pH 7.4 alone, mouse column (second value of cell)
parameterMeasured: Plasma Stability (% Remaining at 3hrs)
Give the quantity in % Remaining at 3hrs, number only.

[[record]]
compoundstring = "O=C(O)c1cccc(-n2sc3ccccc3c2=O)c1"
endpointvalue = 71.2

[[record]]
compoundstring = "COC(=O)c1cccc(-n2sc3ccccc3c2=O)c1"
endpointvalue = 55.2


Query: Note Plasma Stability for the molecule shown: CN(C)C(=O)c1cccc(-n2sc3ccccc3c2=O)c1
Reply: 56.9

Query: Assign Plasma Stability to the following record: CN(C)S(=O)(=O)c1cccc(-n2sc3ccccc3c2=O)c1
Reply: 40.0

----------
Test: Plasma stability, mouse
Conditions: mouse plasma: 1× PBS, pH 7.4, 1:1 (first value of cell)
Plasma Stability by entry:
// return numeric value only (unit: % Remaining at 3hrs, not printed)

[[record]]
molecule = "CN(C)C(=O)c1cccc(-n2sc3ccccc3c2=O)c1 [Compound 2q]"
endpointvalue = 76.2

[[record]]
molecule = "CN(C)S(=O)(=O)c1cccc(-n2sc3ccccc3c2=O)c1 [Compound 2s]"
endpointvalue = 65.3

[[record]]
molecule = "O=C(O)c1cccc(-n2sc3ccccc3c2=O)c1 [Compound 2n]"
endpointvalue = 100


Now let's try a different one.
Query: Return value of Plasma Stability for input COC(=O)c1cccc(-n2sc3ccccc3c2=O)c1 [Compound 2o] , no commentary.
Reply: 59.6

----------
Quick reference: Plasma Protein Binding of the listed items.
Test: Plasma protein binding, mouse
Conditions: 10 μM
Please reply with the bare figure in % Bound and do not write the unit itself.

Below are worked cases with known answers.
[[record]]
compoundstring = "COC(=O)c1cccc(-n2sc3ccccc3c2=O)c1"
parametermeasured = "Plasma Protein Binding"
endpointvalue = 37.6

[[record]]
compoundstring = "O=C(O)c1cccc(-n2sc3ccccc3c2=O)c1"
parametermeasured = "Plasma Protein Binding"
endpointvalue = 30.1

[[record]]
compoundstring = "CN(C)S(=O)(=O)c1cccc(-n2sc3ccccc3c2=O)c1"
parametermeasured = "Plasma Protein Binding"
endpointvalue = 34.1


Could you now look at the following compound, please?
Query: Tell me Plasma Protein Binding reported for CN(C)C(=O)c1cccc(-n2sc3ccccc3c2=O)c1
Reply: 46.7

----------
Assay: PAMPA permeability
Conditions: pH 7.4, PAMPA Permeability, donor pH 7.4, acceptor pH 7.4
parameterMeasured: Papp (×10⁻⁶ cm/s)
State the answer as a number, implicitly in ×10⁻⁶ cm/s.

Query: Fill in reported Papp for this entry: COC(=O)c1cccc(-n2sc3ccccc3c2=O)c1
Reply: 1300

----------
Assay: Plasma stability, human
Conditions: 1× PBS, pH 7.4 alone, human column (second value of cell)
parameterMeasured: Plasma Stability (% Remaining at 3hrs)
Just the number please, in % Remaining at 3hrs, no unit attached.

[[record]]
compound = "O=C(O)c1cccc(-n2sc3ccccc3c2=O)c1 [Compound 2n]"
endpointvalue = 55.5


Query: Respond only with Plasma Stability recorded for CN(C)C(=O)c1cccc(-n2sc3ccccc3c2=O)c1 [Compound 2q]
Reply: 60.0

Query: Quote Plasma Stability reported for CN(C)S(=O)(=O)c1cccc(-n2sc3ccccc3c2=O)c1 [Compound 2s] please.
Reply: 32.3

Query: Complete the entry with Plasma Stability for COC(=O)c1cccc(-n2sc3ccccc3c2=O)c1 [Compound 2o]
Reply: 49.3
